All figures here come from PubChem BioAssay AID1963837.

Tested on: 843126-344-R-J1-PDC complex spheroid viability
Assay: Anticancer human tumor 843126-344-R-J1-PDC patient-derived melanoma cell line growth inhibition [POLQ]
Details: second compound 0.0316 µM; first compound 0.0316 µM; hits give low values
Readout: viability, T/C

The value of viability, T/C recorded for CCc1cc2c(N3CCc4c(cc(Cn5ccnc5)cc4-c4cn(C)nc4C(F)(F)F)C3=O)cc(C)nc2c(OC)n1 + Nc1ccc(C#CCN(C(=O)Cc2ncc(C(F)(F)F)cc2C(F)(F)F)c2ccc(F)cc2)nn1 when tested on 843126-344-R-J1-PDC complex spheroid viability reads 96.9%

The value of viability, T/C recorded for CC1COCCN1c1cc(C2(O)CC3CCC(C2)O3)c2cnn(-c3ccn[nH]3)c2n1 (stereo not drawn) + Nc1ccc(C#CCN(C(=O)Cc2ncc(C(F)(F)F)cc2C(F)(F)F)c2ccc(F)cc2)nn1 when tested on 843126-344-R-J1-PDC complex spheroid viability reads 82.7%

The value of viability, T/C recorded for CC1COCCN1c1cc(C2(O)CC3CCC(C2)O3)c2cnn(-c3ccn[nH]3)c2n1 (stereo not drawn) + COC1C(OC(N)=O)C(O)C(Oc2ccc3c(O)c(NC(=O)c4ccc(O)c(CC=C(C)C)c4)c(=O)oc3c2C)OC1(C)C when tested on 843126-344-R-J1-PDC complex spheroid viability reads 83.6%

----------
So I've got a bunch of compounds here, and I need their viability, T/C values.
Tested on: 843126-344-R-J1-PDC complex spheroid viability
Assay: Anticancer human tumor 843126-344-R-J1-PDC cell line growth inhibition [POLQ];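 note: spheroids exposed to drugs for seven days before readout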
Details: second compound 0.0316 µM; first compound 0.0316 µM; hits give low values

The compound COc1cc2cc(C(=O)CCC(=O)O)sc2cc1OC + Cc1cccc(N(C)C(=O)C2C(O)CCN2c2nc(C)cc(C(F)(F)F)c2C#N)c1 showed viability, T/C equal to 95.8%

The compound CNCc1ccc(-c2[nH]c3cc(F)cc4c3c2CCNC4=O)cc1 + Cc1cccc(N(C)C(=O)C2C(O)CCN2c2nc(C)cc(C(F)(F)F)c2C#N)c1 showed viability, T/C equal to 76.6%

The compound CC(C)n1c(=O)n(C)c2cnc3cc(F)c(-c4ccc(OCCCN5CCCCC5)nc4)cc3c21 + Cc1cccc(N(C)C(=O)C2C(O)CCN2c2nc(C)cc(C(F)(F)F)c2C#N)c1 showed viability, T/C equal to 100%

The compound CC1COCCN1c1cc(-c2ccnn2C)c2ccnc(-c3ccn[nH]3)c2n1 (centres undefined) + COC1C(OC(N)=O)C(O)C(Oc2ccc3c(O)c(NC(=O)c4ccc(O)c(CC=C(C)C)c4)c(=O)oc3c2C)OC1(C)C showed viability, T/C equal to 98.7%

----------
System: 843126-344-R-J1-PDC complex spheroid viability
Assay: Anticancer human tumor 843126-344-R-J1-PDC cell line growth inhibition [POLQ];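 note: spheroids exposed to drugs for seven days before readout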
Details: second compound 1 µM; first compound 0.1 µM; hits give low values
So I've got a bunch of compounds here, and I need their viability, T/C values.
Answer format: numeric, % implied, no suffix.

The value of viability, T/C recorded for CCc1cc2c(N3CCc4c(cc(Cn5ccnc5)cc4-c4cn(C)nc4C(F)(F)F)C3=O)ccnc2c(OC)n1 + COC1C(OC(N)=O)C(O)C(Oc2ccc3c(O)c(NC(=O)c4ccc(O)c(CC=C(C)C)c4)c(=O)oc3c2C)OC1(C)C when tested on 843126-344-R-J1-PDC complex spheroid viability reads 93.8

The value of viability, T/C recorded for COc1ccc([C@@H](O)c2cc(-c3ncnc4cc(N5CCOCC5)ccc34)c(F)cc2Cl)nn1 + Cc1cccc(N(C)C(=O)C2C(O)CCN2c2nc(C)cc(C(F)(F)F)c2C#N)c1 when tested on 843126-344-R-J1-PDC complex spheroid viability reads 101

The value of viability, T/C recorded for CC[C@@]1(O)C(=O)OCc2c1cc1n(c2=O)Cc2cc3c(CN(C)C)c(O)ccc3nc2-1 + COC1C(OC(N)=O)C(O)C(Oc2ccc3c(O)c(NC(=O)c4ccc(O)c(CC=C(C)C)c4)c(=O)oc3c2C)OC1(C)C when tested on 843126-344-R-J1-PDC complex spheroid viability reads 46.6

----------
Test system: 843126-344-R-J1-PDC complex spheroid viability
Assay: Anticancer human tumor 843126-344-R-J1-PDC cell line growth inhibition [POLQ];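 note: spheroids exposed to drugs for seven days before readout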
Conditions: second compound 3.16 µM; first compound 3.16 µM; hits give low values
Readout: viability, T/C (%)
Answer format: numeric, % implied, no suffix.

The compound C#Cc1c(F)ccc2cc(O)cc(-c3ncc4c(N5CC6CCC(C5)N6)nc(OCC56CCCN5CC(F)C6)nc4c3F)c12 (stereo unspecified) + Nc1ccc(C#CCN(C(=O)Cc2ncc(C(F)(F)F)cc2C(F)(F)F)c2ccc(F)cc2)nn1 showed viability, T/C equal to 97.6

The compound CCc1cc2c(N3CCc4c(cc(Cn5ccnc5)cc4-c4cn(C)nc4C(F)(F)F)C3=O)cc(C)nc2c(OC)n1 + COC1C(OC(N)=O)C(O)C(Oc2ccc3c(O)c(NC(=O)c4ccc(O)c(CC=C(C)C)c4)c(=O)oc3c2C)OC1(C)C showed viability, T/C equal to 72.7

The compound CC(C)n1c(=O)n(C)c2cnc3cc(F)c(-c4ccc(OCCCN5CCCCC5)nc4)cc3c21 + Nc1ccc(C#CCN(C(=O)Cc2ncc(C(F)(F)F)cc2C(F)(F)F)c2ccc(F)cc2)nn1 showed viability, T/C equal to 81.8

The compound CCc1cc2c(N3CCc4c(cc(Cn5ccnc5)cc4-c4cn(C)nc4C(F)(F)F)C3=O)ccnc2c(OC)n1 + Cc1cccc(N(C)C(=O)C2C(O)CCN2c2nc(C)cc(C(F)(F)F)c2C#N)c1 showed viability, T/C equal to 69.3

The compound O=c1[nH]cc(F)c(=O)[nH]1 + Nc1ccc(C#CCN(C(=O)Cc2ncc(C(F)(F)F)cc2C(F)(F)F)c2ccc(F)cc2)nn1 showed viability, T/C equal to 80

The compound CC1COCCN1c1cc(C2(S(C)(=N)=O)CC2)nc(-c2ccnc3[nH]ccc23)n1 (stereo unspecified) + COC1C(OC(N)=O)C(O)C(Oc2ccc3c(O)c(NC(=O)c4ccc(O)c(CC=C(C)C)c4)c(=O)oc3c2C)OC1(C)C showed viability, T/C equal to 74

----------
System: 843126-344-R-J1-PDC complex spheroid viability
Test: Anticancer human tumor 843126-344-R-J1-PDC cell line growth inhibition [POLQ];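 note: spheroids exposed to drugs for seven days before readout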
Conditions: second compound 0.316 µM; first compound 0.00316 µM; hits give low values
So I've got a bunch of compounds here, and I need their viability, T/C values.

The compound CC[C@@]1(O)C(=O)OCc2c1cc1n(c2=O)Cc2cc3c(CN(C)C)c(O)ccc3nc2-1 + COC1C(OC(N)=O)C(O)C(Oc2ccc3c(O)c(NC(=O)c4ccc(O)c(CC=C(C)C)c4)c(=O)oc3c2C)OC1(C)C showed viability, T/C equal to 91.1%

The compound COc1cccc(OCCCN)c1-c1cc(Nc2cnc(C#N)cn2)n[nH]1 + Nc1ccc(C#CCN(C(=O)Cc2ncc(C(F)(F)F)cc2C(F)(F)F)c2ccc(F)cc2)nn1 showed viability, T/C equal to 92.9%

The compound Cn1ncnc1[C@H]1c2n[nH]c(=O)c3cc(F)cc(c23)N[C@@H]1c1ccc(F)cc1 + COC1C(OC(N)=O)C(O)C(Oc2ccc3c(O)c(NC(=O)c4ccc(O)c(CC=C(C)C)c4)c(=O)oc3c2C)OC1(C)C showed viability, T/C equal to 81.2%

The compound CCc1c2c(nc3ccc(O)cc13)-c1cc3c(c(=O)n1C2)COC(=O)[C@]3(O)CC + COC1C(OC(N)=O)C(O)C(Oc2ccc3c(O)c(NC(=O)c4ccc(O)c(CC=C(C)C)c4)c(=O)oc3c2C)OC1(C)C showed viability, T/C equal to 70.5%

The compound CC[C@@]1(O)C(=O)OCc2c1cc1n(c2=O)Cc2cc3c(CN(C)C)c(O)ccc3nc2-1 + Nc1ccc(C#CCN(C(=O)Cc2ncc(C(F)(F)F)cc2C(F)(F)F)c2ccc(F)cc2)nn1 showed viability, T/C equal to 90.5%

The compound Cn1ncnc1[C@H]1c2n[nH]c(=O)c3cc(F)cc(c23)N[C@@H]1c1ccc(F)cc1 + Nc1ccc(C#CCN(C(=O)Cc2ncc(C(F)(F)F)cc2C(F)(F)F)c2ccc(F)cc2)nn1 showed viability, T/C equal to 111%

The compound C=CCn1c(=O)c2cnc(Nc3ccc(N4CCN(C)CC4)cc3)nc2n1-c1cccc(C(C)(C)O)n1 + Nc1ccc(C#CCN(C(=O)Cc2ncc(C(F)(F)F)cc2C(F)(F)F)c2ccc(F)cc2)nn1 showed viability, T/C equal to 95.1%

The compound CC[C@@]1(O)C(=O)OCc2c1cc1n(c2=O)Cc2cc3c(CN(C)C)c(O)ccc3nc2-1 + Cc1cccc(N(C)C(=O)C2C(O)CCN2c2nc(C)cc(C(F)(F)F)c2C#N)c1 showed viability, T/C equal to 93.1%

The compound C=CCn1c(=O)c2cnc(Nc3ccc(N4CCN(C)CC4)cc3)nc2n1-c1cccc(C(C)(C)O)n1 + COC1C(OC(N)=O)C(O)C(Oc2ccc3c(O)c(NC(=O)c4ccc(O)c(CC=C(C)C)c4)c(=O)oc3c2C)OC1(C)C showed viability, T/C equal to 87%

The compound Cn1ncnc1[C@H]1c2n[nH]c(=O)c3cc(F)cc(c23)N[C@@H]1c1ccc(F)cc1 + Cc1cccc(N(C)C(=O)C2C(O)CCN2c2nc(C)cc(C(F)(F)F)c2C#N)c1 showed viability, T/C equal to 89.5%
